# systemUnderTest: GABA-A alpha2 receptor (alpha 2 subunit together with a beta and a gamma subunit) (Homo sapiens, UniProt P18507+P47869)
# Construct: expressed in transfected cells
# Sequence (P47869 29-451): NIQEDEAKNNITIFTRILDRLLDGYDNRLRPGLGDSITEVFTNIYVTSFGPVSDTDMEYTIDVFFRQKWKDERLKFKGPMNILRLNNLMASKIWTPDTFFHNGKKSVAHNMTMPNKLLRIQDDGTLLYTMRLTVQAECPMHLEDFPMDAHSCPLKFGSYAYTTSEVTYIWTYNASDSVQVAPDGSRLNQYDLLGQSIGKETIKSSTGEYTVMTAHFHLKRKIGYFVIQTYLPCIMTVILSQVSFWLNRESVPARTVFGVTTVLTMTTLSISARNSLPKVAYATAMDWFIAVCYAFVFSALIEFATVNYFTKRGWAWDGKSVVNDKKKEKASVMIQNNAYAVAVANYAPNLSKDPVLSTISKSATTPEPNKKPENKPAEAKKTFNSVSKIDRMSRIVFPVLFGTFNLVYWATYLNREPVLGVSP
# Sequence (P47870 25-512 partner limits assumed): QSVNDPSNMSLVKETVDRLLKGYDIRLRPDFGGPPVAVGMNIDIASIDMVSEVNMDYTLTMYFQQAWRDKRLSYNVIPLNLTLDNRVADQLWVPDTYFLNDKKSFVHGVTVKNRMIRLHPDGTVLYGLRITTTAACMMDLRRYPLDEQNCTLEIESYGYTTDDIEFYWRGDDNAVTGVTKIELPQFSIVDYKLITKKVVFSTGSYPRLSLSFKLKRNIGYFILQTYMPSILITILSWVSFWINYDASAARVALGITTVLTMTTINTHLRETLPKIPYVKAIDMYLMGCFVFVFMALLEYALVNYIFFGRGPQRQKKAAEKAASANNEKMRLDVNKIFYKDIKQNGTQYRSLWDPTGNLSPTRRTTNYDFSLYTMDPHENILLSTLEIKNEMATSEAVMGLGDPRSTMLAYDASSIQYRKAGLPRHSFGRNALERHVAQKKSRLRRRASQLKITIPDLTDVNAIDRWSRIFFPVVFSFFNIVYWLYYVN
# Sequence (P18507 40-467 limits assumed): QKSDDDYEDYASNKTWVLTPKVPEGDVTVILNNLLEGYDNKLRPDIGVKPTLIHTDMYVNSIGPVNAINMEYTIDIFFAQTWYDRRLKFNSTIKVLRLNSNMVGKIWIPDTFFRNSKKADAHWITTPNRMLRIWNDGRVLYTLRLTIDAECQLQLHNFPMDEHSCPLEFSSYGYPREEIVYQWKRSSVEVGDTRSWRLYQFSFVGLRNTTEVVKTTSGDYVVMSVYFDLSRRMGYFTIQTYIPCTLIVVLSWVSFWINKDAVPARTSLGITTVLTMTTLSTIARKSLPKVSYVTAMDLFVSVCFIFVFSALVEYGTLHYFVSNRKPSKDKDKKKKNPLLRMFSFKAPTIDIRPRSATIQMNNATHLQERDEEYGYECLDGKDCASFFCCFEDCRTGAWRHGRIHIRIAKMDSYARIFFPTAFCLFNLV
# assayRemarks: GABA-A receptor modulation, voltage-sensitive dye fluorescence in transfected eukaryotic cell line (alpha2)
# Type: cell-based
# experimentalContext: compounds at 3 μM; sub-maximal concentration of GABA (EC20); read-out: alpha2 % mod (percentage of increase of the fluorescent signal compared to signal without the agent)
property: activation at 3 µM (%)

CC(C)(C)n1nc2c(cnc3ccccc32)c1OCc1ccccc1Br: 205
COc1ccc(-n2nc3c(cnc4ccccc43)c2OCCOc2ccccc2)cc1: 52
Clc1ccc(-n2nc3c(cnc4ccccc43)c2OCCN2CCOCC2)cc1: 81
Fc1cccc2c1ncc1c(OCc3ccc(Cl)cc3)n(-c3ccccc3)nc12: 73
Fc1ccccc1-n1nc2c(cnc3ccccc32)c1OCCN1CCOCC1: 72
Clc1ccc(-n2nc3c(cnc4ccc(-n5ccnc5)cc43)c2OCCc2ccccc2Cl)cc1: 129
Fc1ccc(-n2nc3c(cnc4ccccc43)c2OCc2ccccc2C(F)(F)F)cc1: 236
COc1ccc(-n2nc3c(cnc4ccccc43)c2OCCCN2CCN(C)C2=O)cc1: 577
Clc1ccc(-n2nc3c(cnc4ccc(-n5ccnc5)cc43)c2OCC2CC2)cc1: 162
CCCCOc1c2cnc3ccccc3c2nn1-c1ccccc1: 126
COc1ccc(-n2nc3c(cnc4c(F)c(F)c(F)cc43)c2SCc2ccccc2)cc1: 349
Fc1ccc(-n2nc3c(cnc4ccccc43)c2OCc2ccccc2Cl)cc1: 60
COc1ccc(-n2nc3c(cnc4ccccc43)c2OCCc2ccc(Cl)cc2)cc1: 34
Clc1ccc(-n2nc3c(cnc4ccccc43)c2OCC2CCO2)cc1 (centres unmarked): 97
